tested_target: human neutrophil elastase (Homo sapiens, UniProt P08246)
Sequence (P08246 30-267): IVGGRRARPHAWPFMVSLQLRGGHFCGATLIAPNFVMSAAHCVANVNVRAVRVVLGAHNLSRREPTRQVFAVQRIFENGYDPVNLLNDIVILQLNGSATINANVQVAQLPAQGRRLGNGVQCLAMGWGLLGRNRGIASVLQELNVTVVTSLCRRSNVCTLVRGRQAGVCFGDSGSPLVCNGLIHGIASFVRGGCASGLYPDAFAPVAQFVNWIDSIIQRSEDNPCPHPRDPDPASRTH
experiment_summary: In vitro assay of human neutrophil elastase (HNE)
Assay type: biochemical
experimental_conditions: 118 nM purified human neutrophil elastase, pH 8.6, 15 min incubation at 30° C., MeO-succinyl-alanyl-alanyl-prolyl-valyl-p-nitroanilide substrate; read-out: HNE IC50
Counter-ions that a name gives are not always drawn.
log10 IC50 values, listed per item
parameter: log10 IC50 (log10 of the value in nM)

# molecule, tested_target, log10 IC50
measured = [
    ("C=CC[C@H]1C(=O)N(S(=O)(=O)c2cccc(S(=O)(=O)N(C)C)c2)[C@H]2CCN(C(=O)OCc3ccccc3)[C@H]12 (relative stereo)", "human neutrophil elastase (Homo sapiens, UniProt P08246)", 2.14),
    ("CC(C)[C@H]1C(=O)N(S(C)(=O)=O)[C@H]2CCN(C(=O)c3ccc(CN4CCOCC4)cc3)[C@H]12.Cl (relative stereo) [Example 177, hydrochloride]", "human neutrophil elastase (Homo sapiens, UniProt P08246)", 1.30),
    ("CC(C)[C@H]1C(=O)N(S(C)(=O)=O)[C@H]2CCN(C(=O)c3ccco3)[C@H]12 (relative stereo)", "human neutrophil elastase (Homo sapiens, UniProt P08246)", 1.78),
    ("CC(C)[C@H]1C(=O)N(S(C)(=O)=O)[C@H]2CCN(C(=O)CCCC3CCNCC3)[C@H]12 (relative stereo) [Example 255, hydrochloride]", "human neutrophil elastase (Homo sapiens, UniProt P08246)", 2.16),
    ("CC(C)[C@H]1C(=O)N(S(C)(=O)=O)[C@H]2CCN(C(=O)CCCCCN3CCCCCC3)[C@H]12 (relative stereo) [Example 60, hydrochloride]", "human neutrophil elastase (Homo sapiens, UniProt P08246)", 1.67),
    ("CC(C)[C@H]1C(=O)N(S(C)(=O)=O)[C@H]2CCN(C(=O)/C=C/CN3C[C@H]4Cc5c(F)ccc(F)c5C[C@@H]4C3)[C@H]12 (relative stereo) [Example 153, hydrochloride]", "human neutrophil elastase (Homo sapiens, UniProt P08246)", 2.06),
    ("CC(C)[C@H]1C(=O)N(S(C)(=O)=O)[C@H]2CCN(S(=O)(=O)c3ccc([N+](=O)[O-])cc3)[C@H]12 (relative stereo)", "human neutrophil elastase (Homo sapiens, UniProt P08246)", 2.22),
    ("CCC[C@H]1C(=O)N(S(C)(=O)=O)[C@H]2CCN(C(=O)C3CCCN3C)[C@H]12 (relative stereo)", "human neutrophil elastase (Homo sapiens, UniProt P08246)", 2.76),
    ("CCC[C@H]1C(=O)N(S(C)(=O)=O)[C@H]2CCN(C(=O)CCCCCCCCCN3CCC3)[C@H]12 (relative stereo)", "human neutrophil elastase (Homo sapiens, UniProt P08246)", 1.57),
    ("CCC[C@H]1C(=O)N(S(C)(=O)=O)[C@H]2CCN(C(=O)/C=C/CN3CCCCC3)[C@H]12 (relative stereo) [Example 57, hydrochloride]", "human neutrophil elastase (Homo sapiens, UniProt P08246)", 1.43),
    ("CCC[C@H]1C(=O)N(S(C)(=O)=O)[C@H]2CCN(S(=O)(=O)c3ccc([N+](=O)[O-])cc3)[C@H]12 (relative stereo)", "human neutrophil elastase (Homo sapiens, UniProt P08246)", 2.15),
    ("CCC[C@H]1C(=O)N(S(=O)(=O)c2ccccc2)[C@H]2CCN(S(=O)(=O)CCCN3CCCCC3)[C@H]12 (relative stereo)", "human neutrophil elastase (Homo sapiens, UniProt P08246)", 1.73),
    ("CCC[C@H]1C(=O)N(S(=O)(=O)c2ccc3ccccc3c2)[C@H]2CCN(C(=O)CCN3CCCCC3)[C@H]12 (relative stereo) [Example 2, hydrochloride]", "human neutrophil elastase (Homo sapiens, UniProt P08246)", 2.14),
    ("CCC[C@H]1C(=O)N(S(C)(=O)=O)[C@H]2CCN(C(=O)Cn3ccc(=O)cc3)[C@H]12 (relative stereo)", "human neutrophil elastase (Homo sapiens, UniProt P08246)", 2.48),
    ("CCC[C@H]1C(=O)N(S(C)(=O)=O)[C@H]2CCN(S(=O)(=O)c3ccccc3C(F)(F)F)[C@H]12 (relative stereo)", "human neutrophil elastase (Homo sapiens, UniProt P08246)", 2.08),
    ("CCC[C@H]1C(=O)N(S(C)(=O)=O)[C@H]2CCN(C(=O)CCCCCCCCCN3CCCCC3)[C@H]12 (relative stereo)", "human neutrophil elastase (Homo sapiens, UniProt P08246)", 1.61),
    ("CC(C)[C@H]1C(=O)N(S(C)(=O)=O)[C@H]2CCN(S(=O)(=O)c3ccc(C(F)(F)F)cc3)[C@H]12 (relative stereo)", "human neutrophil elastase (Homo sapiens, UniProt P08246)", 1.83),
    ("CCC[C@H]1C(=O)N(S(C)(=O)=O)[C@H]2CCN(S(=O)(=O)c3ccc(S(C)(=O)=O)cc3)[C@H]12 (relative stereo)", "human neutrophil elastase (Homo sapiens, UniProt P08246)", 1.60),
    ("CCC[C@H]1C(=O)N(S(C)(=O)=O)[C@H]2CCN(C(=O)CCCN3CCCC3)[C@H]12 (relative stereo) [Example 89, hydrochloride]", "human neutrophil elastase (Homo sapiens, UniProt P08246)", 2.26),
    ("CCC[C@H]1C(=O)N(S(C)(=O)=O)[C@H]2CCN(S(=O)(=O)c3ccc(C#N)cc3)[C@H]12 (relative stereo)", "human neutrophil elastase (Homo sapiens, UniProt P08246)", 1.41),
    ("CCC[C@H]1C(=O)N(S(=O)(=O)CC)[C@H]2CCN(S(=O)(=O)CCCN3CCCCC3)[C@H]12 (relative stereo)", "human neutrophil elastase (Homo sapiens, UniProt P08246)", 1.93),
    ("CCCN(C)Cc1ccc(C(=O)N2CC[C@H]3[C@H]2[C@@H](C(C)C)C(=O)N3S(C)(=O)=O)cc1.Cl (relative stereo) [Example 181, hydrochloride]", "human neutrophil elastase (Homo sapiens, UniProt P08246)", 1.62),
    ("CCC[C@H]1C(=O)N(S(=O)(=O)c2cccc3c2NCCC3)[C@H]2CCN(C(=O)OCc3ccccc3)[C@H]12 (relative stereo)", "human neutrophil elastase (Homo sapiens, UniProt P08246)", 2.56),
]
